Target: T1, human PD-1 on cells (293T cells transfected with human PD-1) (human, UniProt Q15116 25-288)
T1 construct: whole, on cells; Also used as the target for the functional rows, where PD-1 stands on human T cells
T1 sequence (Q15116 25-288): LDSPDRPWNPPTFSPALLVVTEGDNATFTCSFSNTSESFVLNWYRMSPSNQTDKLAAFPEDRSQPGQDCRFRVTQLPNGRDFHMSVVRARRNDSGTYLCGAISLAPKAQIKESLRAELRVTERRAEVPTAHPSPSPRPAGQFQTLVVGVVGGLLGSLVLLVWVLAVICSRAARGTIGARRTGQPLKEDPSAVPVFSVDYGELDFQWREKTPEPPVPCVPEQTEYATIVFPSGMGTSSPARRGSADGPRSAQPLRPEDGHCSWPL
Experiment: FACS blockage on hPD-1-293T cells, competitor biotin PD-L1
measurementType: IC50 (µg/mL)
Numbers only, in µg/mL.

Observe how each entry below is paired with its result.
>  <binder>
5A8 murine anti-PD-1 antibody (antibody, V domains shown, Purified hybridoma antibody; also called 5A8-mIgG1) VH: QVQLQQSGDELVRPGTSVKMSCKAAGYTFTNNWIGWVKQRPGHGLEWIGDFYPGGGYTNYNEKFKGKATLTADTSSSTAYMQLSSLTSEDSAIYYCARGYGTNYWYFDVWGAGTTVTVSS VL: NIVMTQTPKILFISAGDRVTITCKASQSVSNDVAWYQQKPGQSPKLLIYYAFTRYIGVPDRFTGSGYGTDFTFTISTVQAEDLAVYFCQQDYSSPYTFGGGTKLEIKR

>  <measurementType>
IC50

>  <resultUnits>
µg/mL

>  <measurement>
0.0282

$$$$
>  <binder>
6E1 murine anti-PD-1 antibody (antibody, V domains shown, Purified hybridoma antibody; also called 6E1-mIgG1) VH: EVKLVESGGGLVKPGGSLKLSCAASGFTFSSYGMSWVRQTPEKRLEWVATISGGGRDTYYLDSVKGRFTISRDNAKNNLYLQMSSLRSEDTALYYCVRQYYDDWFAYWGQGTLVSNSA VL: DIVLTQTPATLSVTPGDSVSLSCRASQSLSNNLHWYQQKSHESPRLLIKYASQSISGIPSRFSGSGSGTDFTLSINSVETEDFGMYFCQQSNSWPLTFGAGTKLEMKR

>  <measurementType>
IC50

>  <resultUnits>
µg/mL

>  <measurement>
0.0268

$$$$

# ---- query binder ----
Query string: For 10D1 murine anti-PD-1 antibody (antibody, V domains shown, Purified hybridoma antibody; also called 10D1-mIgG1) VH: EVKLVESGGGLVKPGGSLKLSCAASGFTFSSYGMSWLRQTPEKRLEWVATMSGGGRDIYYPDSMKGRFTISRDNAKNNLYLQMSSLRSEDTALYYCARQYYDDWFAYWGQGTLVTVSA VL: DIVLTQTPATLSVTPGDSVSLSCRASQSISNNLHWYQQKSHESPRLLIKYASQSISGIPSRFSGSGSGTDFTLNINSVETEDFGMYFCQQSNSWPLTFGAGTKLELKR , what is its reported IC50?
Result string: 0.0369
